system: Nucleotide-binding oligomerization domain-containing protein 1 (Homo sapiens)
Sequence (Q9Y239 whole entry): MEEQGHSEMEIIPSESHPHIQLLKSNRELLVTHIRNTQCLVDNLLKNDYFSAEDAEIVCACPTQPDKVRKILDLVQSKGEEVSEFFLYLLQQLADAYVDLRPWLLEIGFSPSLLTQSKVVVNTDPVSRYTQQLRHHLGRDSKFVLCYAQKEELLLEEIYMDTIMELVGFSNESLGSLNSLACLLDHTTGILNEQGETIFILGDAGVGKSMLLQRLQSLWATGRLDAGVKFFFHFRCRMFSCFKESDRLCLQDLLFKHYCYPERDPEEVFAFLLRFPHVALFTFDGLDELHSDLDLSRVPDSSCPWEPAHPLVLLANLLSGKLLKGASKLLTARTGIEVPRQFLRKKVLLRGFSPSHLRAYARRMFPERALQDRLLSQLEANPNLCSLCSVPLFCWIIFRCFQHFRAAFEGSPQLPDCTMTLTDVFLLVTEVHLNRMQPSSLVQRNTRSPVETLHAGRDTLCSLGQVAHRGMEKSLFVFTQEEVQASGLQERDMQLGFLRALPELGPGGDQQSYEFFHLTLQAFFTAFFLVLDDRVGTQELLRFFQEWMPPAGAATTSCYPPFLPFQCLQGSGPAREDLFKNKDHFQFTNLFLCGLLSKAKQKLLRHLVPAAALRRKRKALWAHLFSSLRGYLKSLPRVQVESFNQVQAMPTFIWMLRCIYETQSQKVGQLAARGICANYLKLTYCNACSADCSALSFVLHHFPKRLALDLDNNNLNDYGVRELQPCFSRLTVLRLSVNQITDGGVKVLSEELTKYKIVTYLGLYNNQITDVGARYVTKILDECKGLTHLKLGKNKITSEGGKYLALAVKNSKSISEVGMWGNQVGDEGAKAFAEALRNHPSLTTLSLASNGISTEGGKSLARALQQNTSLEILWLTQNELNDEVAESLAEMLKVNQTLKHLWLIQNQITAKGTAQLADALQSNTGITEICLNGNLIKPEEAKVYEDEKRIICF
assay: Antagonist activity at human NOD1 expressed in HEK-blue cells assessed as inhibition of C12-iE-DAP-stimulated cell activation preincubated for 3 hrs followed by C12-iE-DAP addition measured after 20 hrs by SEAP reporter gene assay
quantity.measured: pIC50
One number for each entry, as −log10 of the molar value.

Solved entries (count: 8):
COC(=O)CC[C@H]1NC(=O)c2cc(Oc3cc(Cl)c(Cl)c(N(C)C)c3Cl)c(NC(=O)COCc3ccccc3)cc2NC1=O 5.88
COC(=O)CC[C@H]1NC(=O)c2cc(Oc3cccc(N(C)C)c3)c(NC(=O)COCc3cccc(F)c3)cc2NC1=O 5.86
COC(=O)CC[C@H]1NC(=O)c2cc(Oc3cccc(N(C)C)c3)c(NC(=O)COCc3ccc(C#N)cc3)cc2NC1=O 5.40
COC(=O)CC[C@H]1NC(=O)c2cc(Oc3cccc(N(C)C)c3)c(NC(=O)COCc3ccc(C(C)(C)C)cc3)cc2NC1=O 5.71
CN(C)c1cccc(Oc2cc3c(cc2NC(=O)COCc2ccccc2)NC(=O)[C@@H](CCC(=O)NC2CC2)NC3=O)c1 5.06
COC(=O)CC[C@H]1NC(=O)c2cc(Oc3cccc(N(C)C)c3)c(NC(=O)COCc3ccc(Cl)cc3)cc2NC1=O 6.21
COC(=O)CC[C@H]1NC(=O)c2cc(Oc3ccc(Cl)c(N(C)C)c3)c(NC(=O)COCc3ccccc3)cc2NC1=O 5.54
CCCNC(=O)CC[C@H]1NC(=O)c2cc(Oc3cccc(N(C)C)c3)c(NC(=O)COCc3ccc(F)cc3)cc2NC1=O 5.55

Lab note: each compound below needs its pIC50 filled in.
1. COC(=O)CC[C@H]1NC(=O)c2cc(Oc3cccc(N(C)C)c3)c(NC(=O)COCc3cccc(Br)c3)cc2NC1=O
2. COC(=O)CC[C@H]1NC(=O)c2cc(Oc3cccc(N(C)C)c3)c(NC(=O)COCc3ccc4ccccc4c3)cc2NC1=O
3. CCCCN(CCCC)C(=O)CC[C@H]1NC(=O)c2cc(Oc3cccc(N(C)C)c3)c(NC(=O)COCc3ccccc3)cc2NC1=O
4. CN(C)c1cccc(Oc2cc3c(cc2NC(=O)COCc2ccc(Cl)cc2)NC(=O)[C@@H](CCC(=O)N2CCCCC2)NC3=O)c1
5. CCCNC(=O)CC[C@H]1NC(=O)c2cc(Oc3cccc(N(C)C)c3)c(NC(=O)COCc3ccccc3)cc2NC1=O

[reply]
5.88
5.79
5.89
5.97
5.63

The measurements presented in this section are drawn from ChEMBL document CHEMBL4014339.
